- experimentalSystem: T1, human IL-1α (human, UniProt P01583 113-271)
- T1 sequence (looked up): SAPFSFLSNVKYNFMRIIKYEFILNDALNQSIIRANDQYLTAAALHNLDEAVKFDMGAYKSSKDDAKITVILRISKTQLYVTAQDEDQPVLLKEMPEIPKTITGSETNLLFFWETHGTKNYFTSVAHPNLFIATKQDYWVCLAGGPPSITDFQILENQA
- assayProtocol: cell-based or functional assay
parameterMeasured: IL-1α IC50 (µM)

>>> val("ABT2-65/ABT1-141 hu IgG1/K wt (bispecific antibody, V domains shown) VH: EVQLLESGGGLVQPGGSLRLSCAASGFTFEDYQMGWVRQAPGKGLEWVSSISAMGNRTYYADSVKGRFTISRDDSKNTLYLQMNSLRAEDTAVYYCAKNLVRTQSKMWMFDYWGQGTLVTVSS VL: DIQMTQSPSSLSASVGDRVTITCRASQWIQKQLAWYQQKPGKAPKLLIYSSSYLQSGVPRFSGSGSGTDFTLTISSLQPEDFATYYCQQHLRVPFTFGQGTKVEIKR")
7
>>> val("ABT2-108-534x/ABT1-122 hu IgG1/K wt (bispecific antibody, V domains shown) VH: EVQLLESGGGLVQPGGSLRLSCAASGFTFADEGMMWVRQAPGKGLEWVSRITYSGKNTYYADSVKGRFTISRDNSKNTLYLQMNSLRAEDTAVYYCAKYTGRIFSHHLFDYWGQGTLVTVSS VL: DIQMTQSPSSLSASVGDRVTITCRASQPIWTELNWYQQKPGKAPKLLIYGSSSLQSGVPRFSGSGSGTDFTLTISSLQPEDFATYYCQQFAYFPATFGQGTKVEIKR")
1
>>> val("ABT2-65-8/ABT1-212 hu IgG1/K wt (bispecific antibody, V domains shown) VH: EVQLLESGGGLVQPGGSLRLSCAASGFTFEDYQMGWVRQAPGKGLEWVSSISAMGNRTYYADSVKGRFTISRDDSKNTLYLQMNSLRAEDTAVYYCAQNLVRMDSRRWMFDYWGQGTLVTVSS VL: DIQMTQSPSSLSASVGDRVTITCRASQRINGNLRWYQQKPGKAPKLLIYSVSQLQSGVPSRFSGSGSGTDFTLTISSLQPEDFATYYCQQGYDWPPTFGQGTKVETKR")
5
>>> val("ABT2-108/ABT1-95-3 hu IgG1/K wt (bispecific antibody, V domains shown) VH: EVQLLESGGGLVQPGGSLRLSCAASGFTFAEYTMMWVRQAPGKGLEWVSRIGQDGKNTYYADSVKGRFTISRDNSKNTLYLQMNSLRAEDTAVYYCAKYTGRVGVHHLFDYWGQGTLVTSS VL: DIQMTQSPSSLSASVGDRVTITCRASQPIHGNLRWYQQKPGKAPKLLIYSSSYLQSGVPSRFSGSGSGTDFTLTISSLQPEDFATYHCQQGYRWPVTFGQGTKVEIKR")
1.5
>>> val("ABT2-108/ABT1-122-508 hu IgG1/K wt (bispecific antibody, V domains shown) VH: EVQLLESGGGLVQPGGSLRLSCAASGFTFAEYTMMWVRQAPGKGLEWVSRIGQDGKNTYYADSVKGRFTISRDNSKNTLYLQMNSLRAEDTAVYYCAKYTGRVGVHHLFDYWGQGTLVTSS VL: DIQMTQSPSSLSASVGDRVTITCRASQPIWTELNWYQQKPGKAPKLLIYGSSSLQRGVPSRFSGSGSGTDFTLTISSLQPEDFATYYCQQFAYFPATFGQGTKVEIKR")
0.4
